ASSAYED TARGET: T1, murine BACE1 ECD
T1 construct: analyte of the Octet assay (200 nM) and enzyme of the first short substrate assay
T1 sequence (single chain, as listed by the source limits assumed): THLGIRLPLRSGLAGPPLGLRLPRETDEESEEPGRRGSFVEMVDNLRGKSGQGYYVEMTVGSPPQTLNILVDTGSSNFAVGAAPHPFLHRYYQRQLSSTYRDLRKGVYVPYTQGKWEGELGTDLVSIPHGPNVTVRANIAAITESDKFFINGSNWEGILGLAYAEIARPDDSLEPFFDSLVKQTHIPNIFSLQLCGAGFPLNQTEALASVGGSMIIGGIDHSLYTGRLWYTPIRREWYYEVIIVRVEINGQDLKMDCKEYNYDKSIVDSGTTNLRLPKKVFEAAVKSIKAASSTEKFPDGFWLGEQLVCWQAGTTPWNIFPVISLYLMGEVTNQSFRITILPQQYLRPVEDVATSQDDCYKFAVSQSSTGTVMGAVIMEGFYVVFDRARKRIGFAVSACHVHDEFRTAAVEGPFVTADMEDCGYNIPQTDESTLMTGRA
EXPERIMENT DESCRIPTION: Octet, pH 5.0
RECORDED ENDPOINT: Kd (nM)

{"BINDER": "5884 (antibody, V domains shown, anti-BACE1 IgG) VH: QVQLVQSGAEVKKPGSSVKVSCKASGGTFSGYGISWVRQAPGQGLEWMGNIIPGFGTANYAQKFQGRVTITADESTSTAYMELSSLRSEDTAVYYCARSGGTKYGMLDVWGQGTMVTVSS VL: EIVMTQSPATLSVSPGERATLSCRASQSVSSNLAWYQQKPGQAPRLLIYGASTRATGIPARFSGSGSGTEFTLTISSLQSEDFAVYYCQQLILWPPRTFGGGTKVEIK", "DATA VALUE": 2}
{"BINDER": "5572 (antibody, V domains shown, anti-BACE1 IgG) VH: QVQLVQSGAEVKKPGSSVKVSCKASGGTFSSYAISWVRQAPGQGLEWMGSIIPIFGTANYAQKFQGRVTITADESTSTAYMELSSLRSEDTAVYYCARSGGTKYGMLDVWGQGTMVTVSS VL: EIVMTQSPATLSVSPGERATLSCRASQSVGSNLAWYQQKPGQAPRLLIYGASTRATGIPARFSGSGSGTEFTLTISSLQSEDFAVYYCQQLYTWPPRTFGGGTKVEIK", "DATA VALUE": 2}
{"BINDER": "5878 (antibody, V domains shown, anti-BACE1 IgG) VH: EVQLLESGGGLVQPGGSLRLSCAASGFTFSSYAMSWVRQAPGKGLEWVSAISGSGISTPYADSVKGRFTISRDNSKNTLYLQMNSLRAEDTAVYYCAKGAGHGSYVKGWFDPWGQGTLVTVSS VL: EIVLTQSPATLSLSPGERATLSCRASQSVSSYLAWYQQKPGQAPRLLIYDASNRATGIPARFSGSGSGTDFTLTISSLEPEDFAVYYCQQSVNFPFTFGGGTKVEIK", "DATA VALUE": 14}
{"BINDER": "5880 (antibody, V domains shown, anti-BACE1 IgG) VH: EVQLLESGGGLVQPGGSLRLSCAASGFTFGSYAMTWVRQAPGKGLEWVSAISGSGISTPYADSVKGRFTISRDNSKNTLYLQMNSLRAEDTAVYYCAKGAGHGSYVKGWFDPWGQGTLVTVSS VL: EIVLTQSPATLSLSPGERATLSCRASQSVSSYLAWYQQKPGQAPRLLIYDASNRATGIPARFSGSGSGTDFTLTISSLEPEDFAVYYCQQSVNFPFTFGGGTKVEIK", "DATA VALUE": 6.1}
{"BINDER": "5536 (antibody, V domains shown, anti-BACE1 IgG) VH: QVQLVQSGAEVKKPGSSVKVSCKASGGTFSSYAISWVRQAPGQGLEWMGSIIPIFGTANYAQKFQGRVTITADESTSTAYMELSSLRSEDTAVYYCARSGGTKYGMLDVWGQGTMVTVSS VL: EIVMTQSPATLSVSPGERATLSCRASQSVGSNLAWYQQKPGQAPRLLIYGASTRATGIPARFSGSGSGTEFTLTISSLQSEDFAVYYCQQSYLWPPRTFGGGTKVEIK", "DATA VALUE": 6.8}
